The reported numbers originate from ChEMBL document CHEMBL4689842.

test system: HEK-293T; test: Multiplex assay against HEK293T; assay type: toxicity, cell-based; settings: human, 48 h, 1 µM, compound concentration 1 uM, replicate 2
ASSAY METRIC: Population Mitotic Cells (%)
Numbers only, in %.

# count of solved cases: 2
1) Cc1cc(C)cc(-c2cnc3cc(Cl)c(-c4cccc(O)c4)cc3c2OCCCN)c1    66
2) CN1CCN(c2ccc(OC(F)(F)F)c(Nc3ncc4c(n3)-c3c(c(C(N)=O)nn3CCO)CC4)c2)CC1    63

Give Population Mitotic Cells (%) for each of the items listed below.
1. Cn1cc(-c2[nH]c3cc(NC(=O)[C@H](N)C4CCCCC4)cc4c3c2C=NNC4=O)cn1
2. CN1CCC[C@@H]1CCO[C@](C)(c1ccccc1)c1ccc(Cl)cc1.O=C(O)/C=C/C(=O)O [CLEMASTINE FUMARATE]

Response line:
1: 47; 2: 78
